# protocol.text: NCI Yeast Anticancer Drug Screen. Data for the bub3 strain (AID 167)
# assay.setup: S. cerevisiae bub3 mutant strain, at 50.0 µM (retest, dose inferred, filed as 5.0), active compounds read high
This is part of a sample that, as a whole, favours compounds with a hit. Of some 79,000 tested, about 15% had one in any assay.
Short version: growth inhibition at least 80% is TRUE, less is FALSE.

>  <molecule>
CC[C@@]1(O)C(=O)OCc2c1cc1n(c2=O)Cc2cc3c(CN(C)C)c(O)ccc3nc2-1

>  <assigned.category>
FALSE

$$$$
>  <molecule>
COc1ccc(-c2cn(-c3ccc(I)cc3)c3ncnc(N)c23)cc1

>  <assigned.category>
FALSE

$$$$

Check this compound for growth inhibition at or above 80%: O=[N+]([O-])c1cccc2nc3ccccc3c(NCCCN3CCOCC3)c12
TRUE

Is reported growth inhibition greater than or equal to 80% here: CC1CCN(CCC(=O)c2ccc(Cl)cc2)CC1
FALSE

# check: growth inhibition of CC(C)/C(Cl)=N\OC(=O)Nc1ccccc1F is greater than or equal to 80%
TRUE

Each recorded value in this set is attributed to PubChem BioAssay (NCI).
